Values from ChEMBL document CHEMBL5096159

Target: Lysine-specific histone demethylase 1A (Homo sapiens)
Experiment: Inhibition of recombinant LSD1 (unknown origin) using H3K4me2 as a substrate measured after 0.5 hrs by fluorescence based analysis
pIC50: −log10 of the molar value.
Measure: pIC50

[[record]]
compound = "COc1ccc(-c2coc3cc(O)cc(O)c3c2=O)cc1 [BIOCHANIN]"
measure = "pIC50"
reported_measurement = 5.53


====

Experiment: Cytotoxicity against human GES1 cells assessed as cell viability measured after 72 hrs by MTT assay
Format: toxicity, cell-based
Measure: IC50 at 72 h

[[record]]
smiles_data = "COc1ccc(-c2coc3cc(O)cc(O)c3c2=O)cc1"
reported_measurement = "> 32 µM"

